ASSAY_NOTES: Volume of distribution at steady state in male Sprague-Dawley rat at 10 mg/kg, iv measured after 24 hrs by LC/MS/MS analysis
Type: ADME, organism-based
COND: in vivo, read-out: Vdss
QUANTITY_MEASURED: Vd (L/kg)
Reply with just the number (in L/kg).

Field Vd (entry Cc1nn([C@@H](C)c2nn(-c3ccncc3)c3cc(Cl)ccc23)c2ncnc(N)c12 ) reads 4.53

* * *

ASSAY_NOTES: Half-life in male Sprague-Dawley rat at 10 mg/kg, iv measured after 24 hrs by LC/MS/MS analysis
Type: ADME, organism-based
COND: in vivo
QUANTITY_MEASURED: half-life (h)
Reply with just the number (in h).

Field half-life (entry Cc1nn([C@@H](C)c2nn(-c3ccncc3)c3cc(Cl)ccc23)c2ncnc(N)c12 ) reads 6.65
